Form: system (BTK (Homo sapiens)), quantity (IC50), values below.

>  <compound>
O=C(CNc1cccc(Cl)c1)N1CCC[C@H](Nc2ncnc3[nH]ncc23)C1 [Compound 201]

>  <meas.value>
1000 to 10000 nM

$$$$

Ask | Hi! What's the reported IC50 for CNc1cc(NC2CCCN(C(=O)CNc3cc(Cl)cc(Cl)c3)C2)ncn1 (stereo not shown) [Compound 83] on BTK (Homo sapiens)?
Reply | 100 to 999 nM

Ask | Form field - read-out: IC50; system: BTK (Homo sapiens); submitted item: CC1CCC(NCC(=O)N2CCC[C@H](Nc3ncnc4[nH]ccc34)C2)CC1 (stereo partly shown) [Compound 139]
Reply | > 10000 nM

Ask | Any idea what IC50 came out for CN(c1ncnc2[nH]ccc12)C1CC2CC1N(C(=O)CNc1cc(Cl)cc(Cl)c1)C2 (stereo not shown) [Compound 163] on BTK (Homo sapiens)?
Reply | 1000 to 10000 nM

* * *

This section lists IC50 readings for Tec (Homo sapiens, UniProt P42680).

# example entries with known answers
>  <compound>
O=C(CNc1cc(Cl)cc(Cl)c1)N1CCC[C@@H](Nc2ncnc3[nH]ncc23)C1

>  <IC50>
100 to 999 nM

$$$$
>  <compound>
C[C@@H]1[C@H](Nc2ncnc3[nH]ncc23)CCCN1C(=O)CNc1cc(Cl)cc(Cl)c1

>  <IC50>
< 100 nM

$$$$
>  <compound>
CC[C@@H](Nc1cc(Cl)cc(Cl)c1)C(=O)N1CCC2CCN(c3ncnc4[nH]ccc34)C2C1 (stereo partly drawn)

>  <IC50>
100 to 999 nM

$$$$
>  <compound>
CC1C(Nc2ncnc3[nH]ccc23)CCCN1C(=O)CNc1cc(Cl)cc(Cl)c1 (stereo not drawn)

>  <IC50>
100 to 999 nM

$$$$
>  <compound>
O=C([C@H](Nc1cc(Cl)cc(Cl)c1)C1CC1)N1CCC2CCN(c3ncnc4[nH]ccc34)C2C1 (stereo partly drawn)

>  <IC50>
1000 to 10000 nM

$$$$
>  <compound>
C[C@@H]1[C@H](Nc2ncnc3[nH]ncc23)CCCN1C(=O)CNc1cc(F)cc(Cl)c1

>  <IC50>
100 to 999 nM

$$$$
>  <compound>
O=C(CNc1cc(Cl)cc(Cl)c1)N1CC[C@H]2CCN(c3ncnc4[nH]ccc34)[C@H]2C1

>  <IC50>
< 100 nM

$$$$
>  <compound>
O=C(CNc1cc(Cl)cc(Cl)c1)N1Cc2ccccc2C(Nc2ncnc3[nH]ccc23)C1 (stereo not drawn)

>  <IC50>
100 to 999 nM

$$$$

Ask | Fill in: IC50 of CC1C(Nc2ncnc3[nH]ncc23)CCCN1C(=O)CNc1ccccc1S(=O)(=O)N1CCCCC1 (stereo not drawn) is ___
Reply | 100 to 999 nM

* * *

Molecular target: BTK (Homo sapiens)
Sequence (Q06187 whole entry): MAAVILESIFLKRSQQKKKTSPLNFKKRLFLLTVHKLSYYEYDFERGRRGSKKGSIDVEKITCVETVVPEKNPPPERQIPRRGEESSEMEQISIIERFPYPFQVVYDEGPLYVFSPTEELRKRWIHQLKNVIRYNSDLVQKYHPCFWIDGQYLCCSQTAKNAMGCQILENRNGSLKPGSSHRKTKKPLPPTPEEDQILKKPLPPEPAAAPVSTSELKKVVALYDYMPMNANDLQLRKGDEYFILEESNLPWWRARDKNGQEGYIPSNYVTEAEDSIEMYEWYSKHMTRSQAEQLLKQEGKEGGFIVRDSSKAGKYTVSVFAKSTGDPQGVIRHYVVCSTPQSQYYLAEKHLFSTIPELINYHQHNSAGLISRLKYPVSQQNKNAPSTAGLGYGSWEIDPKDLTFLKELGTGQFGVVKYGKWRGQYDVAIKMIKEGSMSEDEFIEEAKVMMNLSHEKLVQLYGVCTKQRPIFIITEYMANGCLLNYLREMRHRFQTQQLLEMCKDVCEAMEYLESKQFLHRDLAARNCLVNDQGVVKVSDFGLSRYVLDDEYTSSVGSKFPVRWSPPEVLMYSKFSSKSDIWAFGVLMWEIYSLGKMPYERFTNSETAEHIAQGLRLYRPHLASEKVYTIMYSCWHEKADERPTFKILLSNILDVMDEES
pIC50: −log10 of the molar value.
measurement.kind: pIC50

Ask | Need pIC50, item CN(c1ncnc2[nH]ccc12)C1CCCN(C(=O)CNc2ccccc2)C1C(F)(F)F (stereo not shown) [Compound 15]
Reply | > 7.00

Ask | Field request: pIC50 | item: C[C@H]1[C@@H](Nc2ncnc3[nH]ncc23)CCCN1C(=O)CNc1cc(Cl)cc(Cl)c1 [Compound 31]
Reply | > 7.00

Ask | Which pIC50 is reported for this compound? CC(C)C1C(Nc2ncnc3[nH]ccc23)CCCN1C(=O)CNc1cc(Cl)cc(Cl)c1 (stereo not shown) [Compound 34]
Reply | > 7.00

Ask | Endpoint output: pIC50 of C[C@@H](Nc1cc(Cl)cc(Cl)c1)C(=O)N1CCC2CCN(c3ncnc4[nH]ccc34)C2C1 (stereo partly shown) [Compound 56] . Value?
Reply | > 7.00

Ask | Look up pIC50 for this compound: CCCN(c1ncnc2[nH]ccc12)[C@H]1CCCN(C(=O)CNc2cc(Cl)cc(Cl)c2)C1 [Compound 118]
Reply | < 5.00

Ask | Using the record for CN(c1ncnc2[nH]ccc12)C1CCCN(C(=O)CNc2cc(Cl)cc(Cl)c2)C1C(F)(F)F (stereo not shown) [Compound 14] , report its pIC50.
Reply | > 7.00

Ask | Quick one: pIC50 of O=C(CNc1cc(F)cc(Cl)c1)N1CCCC(Nc2ncnc3[nH]ccc23)C1C(F)(F)F (stereo not shown) [Compound 23] ?
Reply | > 7.00

Ask | Fill in the blank: the reported pIC50 of CC1C(Nc2ncnc3[nH]ccc23)CCCN1C(=O)CNc1ccccc1S(=O)(=O)N1CCCC1 (stereo not shown) [Compound 79] is ____.
Reply | > 7.00

Ask | Would you kindly share the measured pIC50 for CC(=O)Nc1cc(N[C@H]2CCCN(C(=O)CNc3cc(Cl)cc(Cl)c3)C2)ncn1 [Compound 109] ?
Reply | < 5.00

Ask | What value of pIC50 has been recorded for this entry: O=C(CNc1cccc(F)c1)N1CCC[C@H](Nc2ncnc3[nH]ccc23)C1 [Compound 188]
Reply | 5.00 to 6.00

Ask | What pIC50 value was documented for this compound, O=C(CNc1cc(Cl)cc(Cl)c1)N1CCOCC(Nc2ncnc3[nH]cnc23)C1 (stereo not shown) [Compound 50] ?
Reply | 6.00 to 7.00

Ask | Fill blank: measured pIC50 of the compound C[C@@H]1[C@H](Nc2ncnc3[nH]ncc23)CCCN1C(=O)CNc1ccccc1S(=O)(=O)N1CCCCC1 [Compound 22] is ____.
Reply | > 7.00

Ask | Quick check: pIC50 of O=C(CNc1cc(Cl)cc(Cl)c1)N1CC2CC(Nc3ncnc4[nH]ccc34)C1C2 (stereo not shown) [Compound 174] ?
Reply | > 7.00

* * *

Biological target: Itk (Homo sapiens, UniProt Q08881)
Sequence (Q08881 1-620): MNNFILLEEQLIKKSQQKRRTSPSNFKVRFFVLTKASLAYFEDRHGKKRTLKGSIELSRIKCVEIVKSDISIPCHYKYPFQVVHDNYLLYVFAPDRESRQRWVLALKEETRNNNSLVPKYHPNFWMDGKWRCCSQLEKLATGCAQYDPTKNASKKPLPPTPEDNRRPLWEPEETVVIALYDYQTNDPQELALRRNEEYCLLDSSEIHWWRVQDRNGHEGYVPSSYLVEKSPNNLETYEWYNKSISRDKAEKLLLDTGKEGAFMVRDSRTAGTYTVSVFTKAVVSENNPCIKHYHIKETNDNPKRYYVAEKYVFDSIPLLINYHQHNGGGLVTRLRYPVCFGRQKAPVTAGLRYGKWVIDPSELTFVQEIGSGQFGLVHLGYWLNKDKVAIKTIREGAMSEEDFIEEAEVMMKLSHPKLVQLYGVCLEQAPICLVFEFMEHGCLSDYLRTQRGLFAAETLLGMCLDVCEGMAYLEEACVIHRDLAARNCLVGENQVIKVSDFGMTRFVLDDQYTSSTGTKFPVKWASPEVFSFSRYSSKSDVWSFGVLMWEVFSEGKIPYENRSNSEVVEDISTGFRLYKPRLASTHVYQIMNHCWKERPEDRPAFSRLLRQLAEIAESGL
This listing pairs compounds with measured IC50.

>  <compound>
O=C(CNc1cc(Cl)cc(Cl)c1)N1CCC2CCN(c3ncnc4[nH]ccc34)C2C1 (centres unmarked)

>  <IC50>
< 100 nM

$$$$
>  <compound>
CC1C(Nc2ncnc3[nH]ncc23)CCCN1C(=O)CNc1ccccc1S(=O)(=O)N1CCCCC1 (centres unmarked)

>  <IC50>
1000 to 10000 nM

$$$$
>  <compound>
CCC[C@@H](Nc1cc(F)cc(Cl)c1)C(=O)N1CCC2CCN(c3ncnc4[nH]ccc34)C2C1 (some centres unmarked)

>  <IC50>
100 to 999 nM

$$$$
>  <compound>
O=C(CNc1cc(Cl)cc(Cl)c1)N1CCC[C@@H](Nc2ncnc3[nH]ccc23)C1

>  <IC50>
1000 to 10000 nM

$$$$

Ask | I am curious: what IC50 value has been reported for CC[C@@H](Nc1cc(Cl)cc(Cl)c1)C(=O)N1CCC2CCN(c3ncnc4[nH]ccc34)C2C1 (some centres unmarked) ?
Reply | 100 to 999 nM

Ask | Item under review: O=C(CNc1cc(F)cc(Cl)c1)N1CCCC(Nc2ncnc3[nH]ccc23)C1C(F)(F)F (centres unmarked) . Reported IC50?
Reply | 1000 to 10000 nM

Ask | Any idea what IC50 was measured for CN(c1ncnc2[nH]ccc12)C1CCCCN(C(=O)CNc2cc(Cl)cc(Cl)c2)C1 (centres unmarked) ?
Reply | > 10000 nM

Ask | I have this compound here, O=C([C@H](Nc1cc(Cl)cc(Cl)c1)C1CC1)N1CCC2CCN(c3ncnc4[nH]ccc34)C2C1 (some centres unmarked) , and I need its recorded IC50.
Reply | 1000 to 10000 nM

Ask | # query: IC50 of entry O=C(CNc1cc(Cl)cc(Cl)c1)N1CCC[C@@H](Nc2ncnc3[nH]ncc23)C1
Reply | 1000 to 10000 nM

Ask | Form field: reported IC50 of O=C(CNc1cc(Cl)cc(Cl)c1)N1Cc2ccccc2C(Nc2ncnc3[nH]ccc23)C1 (centres unmarked)
Reply | 100 to 999 nM

Ask | So what's the measured IC50 for this one? O=C(CNc1ccccc1S(=O)(=O)N1CCCCC1)N1CCC2CCN(c3ncnc4[nH]ccc34)C2C1 (centres unmarked)
Reply | 1000 to 10000 nM

Ask | Using the record for C[C@@H]1[C@H](Nc2ncnc3[nH]ncc23)CCCN1C(=O)CNc1cc(F)cc(Cl)c1 , report its IC50.
Reply | 100 to 999 nM

Ask | GET /values?readout=IC50&item= CN(c1ncnc2[nH]ccc12)[C@@H]1CCCN(C(=O)CNc2cc(Cl)cc(Cl)c2)C1
Reply | 100 to 999 nM

Ask | Given O=C(CNc1cc(Cl)cc(Cl)c1)N1CC[C@H]2CCN(c3ncnc4[nH]ccc34)[C@H]2C1 , state its recorded IC50.
Reply | < 100 nM
